Assay: self-splicing fitness, log relative to wild type (ln ratio); higher = more splicing; Tetrahymena group I intron in knt gene, E. coli kanamycin selection, DiMSum; sequences stand for … in CUCUCU…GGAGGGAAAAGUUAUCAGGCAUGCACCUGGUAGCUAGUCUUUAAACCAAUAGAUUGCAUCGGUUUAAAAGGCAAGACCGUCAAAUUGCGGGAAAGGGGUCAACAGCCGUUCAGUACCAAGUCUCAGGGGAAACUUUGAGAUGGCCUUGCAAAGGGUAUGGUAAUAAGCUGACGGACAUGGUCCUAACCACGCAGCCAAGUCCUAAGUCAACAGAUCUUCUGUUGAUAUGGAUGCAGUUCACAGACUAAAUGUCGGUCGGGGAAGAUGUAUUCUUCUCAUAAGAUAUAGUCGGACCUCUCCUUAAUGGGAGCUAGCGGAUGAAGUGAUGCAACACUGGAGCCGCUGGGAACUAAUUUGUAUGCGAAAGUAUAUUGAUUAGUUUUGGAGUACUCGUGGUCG;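 note: selection with 25 µg/mL kanamycin versus none on LB agar overnight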
Details: 30 °C
just bin them by self-splicing fitness (ln): group 1: < -3; group 2: ≥ -3 and < -2; group 3: ≥ -2

Q. Which band does CGGAAGCAAUAUUACGACAU fall in?
A. group 1

Q. Which band does GCAGAGCAAUAUUACGGUCC fall in?
A. group 2

Q. Which band does AACAAGCAAUAUUACGCUGA fall in?
A. group 3

Q. Which band does UACGAGCAAUAUUACGUCUU fall in?
A. group 1

Q. Which band does GUAGAGCAAUAUUACGCGAU fall in?
A. group 1

Q. Which band does UAUAAGCAAUAUUACGUGAU fall in?
A. group 3

Q. Which band does AAACAGCAAUAUUACGGCCC fall in?
A. group 2

Q. Which band does UGCGAGCAAUAUUACGCUUG fall in?
A. group 1

Further cases:
Q. Which band does CUCGAGCAAUAUUACGACAU fall in?
A. group 1

Q. Which band does GGGCAGCAAUAUUACGCCGU fall in?
A. group 2

Q. Which band does AAGUAGCAAUAUUACGGAAC fall in?
A. group 3

Q. Which band does ACCUAGCAAUAUUACGCGAU fall in?
A. group 2

Q. Which band does AUUAAGCAAUAUUACGACUC fall in?
A. group 3
